Protocol: Selectivity index, ratio of IC50 for cytotoxicity against bovine MDBK cells to IC50 for Trypanocidal activity against Trypanosoma brucei gambiense
Experimental parameters: cattle
selectivity ratio overview

| Structure string | Inequality symbol | selectivity ratio |
| --- | --- | --- |
| Oc1ccccc1-c1nnc(-c2cccc(O)c2O)s1 | = | 3 |
| COc1cccc(-c2ncc(-c3ccccc3OCc3ccccc3)o2)c1OC | = | 6 |
| COc1cccc(-c2ncc(-c3ccccc3OC)o2)c1 | < | 1.8 |
| COc1cccc(-c2ncc(-c3ccccc3N)o2)c1OC | = | 1 |
| COc1ccc(-c2cnc(-c3ccc(OC)c(OC)c3OC)o2)c(OC)c1OC | = | 0.98 |
| Oc1ccccc1-c1cnc(-c2cccc(O)c2O)o1 | = | 0.52 |
| COc1ccccc1-c1nnc(-c2cccc(OC)c2OC)s1 | > | 14 |
| CC(=O)Oc1ccc(OC(C)=O)c(-c2cnc(-c3ccccc3)o2)c1 | = | 0.23 |
| COc1ccc(OC)c(-c2cnc(-c3ccccc3OC)o2)c1 | > | 14 |
| COc1cccc(-c2cnc(-c3cccc(OC)c3)o2)c1 | > | 5.3 |
| Oc1ccccc1-c1cnc(-c2cccc(O)c2O)s1 | = | 2.4 |
| COc1cccc(-c2ncc(-c3c(OC)cccc3OC)o2)c1OC | = | 3.5 |
| COc1cccc(-c2cnc(-c3cccc(OC)c3OC)o2)c1 | = | 1.3 |
| COCOc1ccccc1-c1cnc(-c2cccc(OC)c2OC)o1 | = | 4.2 |
| COc1ccccc1-c1coc(-c2cccc(OC)c2OC)n1 | > | 8.3 |
| Oc1ccc(O)c(-c2cnc(-c3cc(O)ccc3O)o2)c1 | = | 0.29 |
| CC(=O)Oc1ccc(OC(C)=O)c(-c2cnc(-c3cc(OC(C)=O)ccc3OC(C)=O)o2)c1 | = | 0.6 |
| COc1ccccc1-c1nnc(-c2cccc(OC)c2OC)o1 | = | 2.4 |
| Oc1ccccc1-c1coc(-c2cccc(O)c2O)n1 | = | 6.1 |
| COc1cccc(-c2cnc(-c3cccc(OC)c3OC)o2)c1OC | = | 1.3 |
| COc1cccc(-c2ncc(-c3ccccc3N(C)C)o2)c1OC | > | 8.8 |
| COc1cccc(-c2cnc(-c3ccc(OC)c(OC)c3OC)o2)c1OC | > | 4.3 |
| Oc1ccccc1-c1nnc(-c2cccc(O)c2O)o1 | = | 3.1 |
| Oc1ccc(O)c(-c2cnc(-c3ccccc3)o2)c1 | = | 0.42 |

====

Protocol: Selectivity index, ratio of IC50 for cytotoxicity against bovine MDBK cells to IC50 for Trypanocidal activity against Trypanosoma evansi
Tick Fulfilled if selectivity ratio is 2 or greater. Tick Not fulfilled if selectivity ratio is less than 2.

| Structure string | Answer label |
| --- | --- |
| COc1cccc(-c2cnc(-c3ccc(OC)c(OC)c3OC)o2)c1OC | Fulfilled |
| CC(=O)Oc1ccc(OC(C)=O)c(-c2cnc(-c3ccccc3)o2)c1 | Not fulfilled |
| Oc1ccccc1-c1nnc(-c2cccc(O)c2O)s1 | Fulfilled |
| COCOc1ccccc1-c1cnc(-c2cccc(OC)c2OC)o1 | Fulfilled |
| Oc1ccccc1-c1coc(-c2cccc(O)c2O)n1 | Fulfilled |
| COc1cccc(-c2ncc(-c3ccccc3C)o2)c1OC | Not fulfilled |
| COc1cccc(-c2ncc(-c3c(OC)cccc3OC)o2)c1OC | Fulfilled |
| COc1ccccc1-c1cnc(-c2c(OC)cccc2OC)o1 | Not fulfilled |
| COc1ccc(-c2cnc(-c3cccc(OC)c3OC)o2)cc1 | Not fulfilled |
| COc1ccccc1-c1cnc(-c2cccc(OC)c2OC)s1 | Fulfilled |
| COc1cccc(-c2cnc(-c3cccc(OC)c3)o2)c1 | Fulfilled |
| COc1ccccc1-c1nnc(-c2cccc(OC)c2OC)o1 | Fulfilled |

Reference for the values: ChEMBL document CHEMBL4811303
